target: Protein-S-isoprenylcysteine O-methyltransferase (Homo sapiens, UniProt O60725); details: at 10 µM
Sequence (O60725 whole entry): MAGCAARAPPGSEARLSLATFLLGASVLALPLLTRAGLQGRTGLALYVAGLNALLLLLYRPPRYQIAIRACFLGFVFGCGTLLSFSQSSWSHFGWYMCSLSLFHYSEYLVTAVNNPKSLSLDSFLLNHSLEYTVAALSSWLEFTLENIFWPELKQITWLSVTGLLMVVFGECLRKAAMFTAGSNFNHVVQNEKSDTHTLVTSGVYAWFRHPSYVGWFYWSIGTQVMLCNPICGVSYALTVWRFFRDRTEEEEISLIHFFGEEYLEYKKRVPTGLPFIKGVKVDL
Description: Inhibition of human ICMT at 10 uM incubated with N-Acetyl-S-farnesyl-L-cysteine substrate for 5 mins followed by addition of [14C]-SAM measured after 30 mins by liquid scintillation counting
inhibition values by entry

Observe how each entry below is paired with its result.
CC(C)=CCC/C(C)=C/CC/C(C)=C/CSC[C@H](NS(=O)(=O)c1ccc(F)cc1F)C(=O)O = 45%
CC(C)=CCC/C(C)=C/CC/C(C)=C/CSC[C@H](NS(=O)(=O)c1c(C)c(C)c(C)c(C)c1C)C(=O)O = < 45%
CCCCCCSC[C@H](NS(=O)(=O)c1cccc([N+](=O)[O-])c1)C(=O)O = 17%
CC(C)=CCC/C(C)=C/CSC[C@H](NS(=O)(=O)c1cccc([N+](=O)[O-])c1)C(=O)O = 18%

### Prompt Output inhibition of CC(C)=CCC/C(C)=C/CC/C(C)=C/CSC[C@H](NS(=O)(=O)c1ccc(Cl)cc1)C(=O)O
### Response 45%

### Prompt Output inhibition of CC(C)=CCC/C(C)=C/CC/C(C)=C/CSC[C@H](NS(=O)(=O)c1ccc(C(C)(C)C)cc1)C(=O)O
### Response 45%

### Prompt Output inhibition of COc1ccc(S(=O)(=O)N[C@@H](CSC/C=C(\C)CC/C=C(\C)CCC=C(C)C)C(=O)O)c([N+](=O)[O-])c1
### Response < 45%

### Prompt Output inhibition of CC(C)=CCC/C(C)=C/CC/C(C)=C/CSC[C@H](NS(=O)(=O)c1ccc(Cl)cc1F)C(=O)O
### Response < 45%
